Target: CD123 FC融合标签蛋白 (UniProt P26951)
Assay: indirect ELISA, CD123 protein coated at 1 μg/ml, B cell clone supernatant
assay.metric: OD450 (OD450)

INSERT INTO assay_data (binder, test_value) VALUES
  ('命名为1E5的兔重组单克隆抗体 (antibody, V domains shown) VH: QSVKESAGGLFKPTDTLTLTCTASGFTISSNAITWVRQAPGNGLEWIGGIDSSGSAYYASWAKSRSTITRNTNLNTVTLKMTSLTAADTATYFCAGGSNIWGPGTLVTVSS VL: DIVMTQTPSSVSAAVGGTVTIKCQASESIYSYLSWYQQKPGQPPKLLIYLASTLDSGVPSRFKGSGSGTQFTLTISDLECADAATYYCQSSYFSSGSSYGNTFGGGTEVVVK', 1.87),
  ('命名为1E6的兔重组单克隆抗体 (antibody, V domains shown) VH: QSVEESGGRLVTPGTPLTLACTVSGFDISSYSMSWVRQAPGKGLEWIGSGIIGGSTYYASWAKGRFTISKTSTTVDLKITSPTTEDTATYFCARFAGTSSTDYYDLWGQGTLVTVSS VL: TQTPSSVEAAVGGTVTIKCQASQSIDSYLAWYQQKPGQPPKLLIYDTSTLASGVSSRFKGSGSGTQFTLTISDLECADAATYYCQNYWIITTFGFGGGTEVVVK', 1.53),
  ('命名为5D3的兔重组单克隆抗体 (antibody, V domains shown) VH: GGAEGGLVKPGGSLELCCKASGFSLSNLRVNWVRQAPGKGLEWIGCIISDSSGTTSYASWVNGRFTLSRDIDQNTGCLQLNSLTVADTAMYYCASRVNITSYDLSLWGQGTLVTVSS VL: AAVLTQTPSPVSAAVGGTVSISCQSSKSVYNNKWLSWFQQKPGQPPKLLIYSASTLASGVPSRFSGSGSGTDFTLTISDVQCDDAATYYCAGGYSGSSDTYSFGGGTEVVVK', 1.77),
  ('命名为1E4的兔重组单克隆抗体 (antibody, V domains shown, In the later assays it was recombinant antibody purified from 293 cells) VH: QSLEESGGRLVTPGTPLTLTCTASGFSLSSYYMSWVRQAPGKGLEYIGIIYDSGSTWYANWAKGRFTISKTSTAVYLEITSPTTEDTATYFCARTGSIYYIWLDLWGQGTLVTVSS VL: AAVLTQTPSPVSAAVGGSVTISCQSSQTIYKNNDLAWYQQKPGQPPKLLIYEASKLASGVPSRFSGSGSGTQFTLTISGVQCDDAATYYCLGGYDDDDDNTFGGGTEVVVK', 2.1);
